Measured values drawn from BindingDB's records for doi:10.1021/cc020096o for this set.

# tested.on: Dipeptidyl peptidase 2 (Homo sapiens)
property: IC50 (µM)
Answer in µM, number only, no unit symbol.

Past entries and their recorded results:
CCC(C)[C@H](N)C(=O)NC(C(C)C)P(=O)(Oc1ccccc1)Oc1ccccc1 (stereo not given in full); 1000
NCC[C@H](N)C(=O)NC(C1CCCCC1)P(=O)(Oc1ccccc1)Oc1ccccc1 (stereo not given in full); 21
CCC(C)[C@H](N)C(=O)NC(CC)P(=O)(Oc1ccccc1)Oc1ccccc1 (stereo not given in full); 1000

Record request: IC50 value, item CCC(C)C(NC(=O)[C@@H](N)C(C)CC)P(=O)(Oc1ccccc1)Oc1ccccc1 (stereo not given in full)
414
